Tested on: HCT-116 colon
test-name: NCI tumour cell line growth inhibition, 48 h
recorded-metric: TGI

Guide cases for TGI, answers given:
> print(dat)
                                   compound    target.desc   reading
1     CC(C)(C)c1cc2ccc(C(N)=O)cc2c(=O)[nH]1  HCT-116 colon  > 100 µM
2              CN(C)CCNS(=O)(=O)c1ccc(N)cc1  HCT-116 colon  > 100 µM
3  COC(=O)c1c(C)nc2c1cc(O)c1[nH]c(C)c(C)nc12  HCT-116 colon  > 100 µM

Enter reported TGI observed with HCT-116 colon for CC(=O)N1C(C(=O)NC2CCCCC2)CSC1c1ccccc1 (configuration not stated)
> 100 µM

Item: COC(=O)C1=C(C(=O)OC)SC(=C2SCSC3=C2SC(C(=O)OC)=C(C(=O)OC)C32SC3=C(CCCC3)S2)S1 Test system: HCT-116 colon Read-out: TGI Value: ?
> 100 µM

Hello, I am looking for reported TGI with HCT-116 colon for Cc1cc(Nc2ccc(S(=O)(=O)O)c3cc(S(=O)(=O)O)cc(S(=O)(=O)O)c23)c2ccccc2n1 . Could you help?
> 100 µM

Please state recorded TGI (tested on HCT-116 colon) of CCOP(=O)(OCC)C(F)(F)c1ccc(CC(NC(=O)OC(C)(C)C)C(=O)O)cc1 (configuration not stated)
> 10 µM

For the record Cc1cccc(C)c1NC(=O)CCCC(=O)C1/C(=N/NC(=O)CC#N)CCC/C1=N\NC(=O)CC#N (configuration not stated) , what value of TGI is listed for HCT-116 colon?
> 100 µM

What measured TGI is associated with Cc1csc(-c2nnc(Nc3ccc(Oc4ncccc4-c4ccnc(N)n4)cc3)c3ccccc23)c1 on HCT-116 colon?
> 100 µM

Entry CCOC(=O)C1=C(C(=O)OCC)C2c3ccccc3C=CN2C(C(=O)OCC)=C(SC)S1 (configuration not stated) , system HCT-116 colon: what TGI was measured?
> 100 µM

Param readout = TGI; param system = HCT-116 colon; param query = C=CC[C@H](C[C@H](C[C@H](C[C@H](C[C@H](C[C@H](C[C@H](C[C@H](C[C@H](C[C@H](CCCCC)OC)OC)OC)OC)OC)OC)OC)OC)OC)OC ; response: value
> 100 µM

Can you look up TGI on HCT-116 colon for N#C/C(=C\c1cccc(Cl)c1Cl)c1ccccc1 ?
> 67.5 µM

====

System: A498 renal
test-name: NCI tumour cell line growth inhibition, 48 h
Items are presented alongside their recorded TGI.

> print(dat)
                          compound   reading
1  O=S(=O)(c1ccccc1)c1cccc2c1NCCC2  > 100 µM

Request the reported TGI associated with C/C(=C\CBr)CCC(Br)C(C)(C)Br (stereo not drawn)
> 100 µM

Entry Cc1cccc(C)c1NC(=O)CCCC(=O)C1/C(=N/NC(=O)CC#N)CCC/C1=N\NC(=O)CC#N (stereo not drawn) : reported TGI = ?
> 100 µM

====

System: HOP-92 NSCLC
test-name: NCI tumour cell line growth inhibition, 48 h
Reported TGI values for a set of molecules
The reply should contain only the number, in µM.

Some solved cases for reference:
> print(dat)
                                   molecule  reading
1  Nc1c(-c2ccc(Cl)c(Cl)c2)c2ccc([N+](=O)[O-])cc2c(=O)n1-c1nc2ccccc2s1     2.81
2  S=c1sc2c(n1-c1ccccc1)NC=NC2S (stereo unspecified)     71.1
3                  Cc1ccc(Oc2ccc(C)cc2N)cc1     95.3

# input for lookup
Under HOP-92 NSCLC: TGI value of COc1cccc(Nc2nc(-c3cccs3)nc3cc(OC)c(OC)cc23)c1 ?
51.9

Data provenance: PubChem BioAssay (NCI)
